- measurement.protocol: Plasma pharmacokinetics of olaparib in rats after a single oral dose, alone or with metformin (UPLC-MS/MS, non-compartmental)
- Type: in vivo, Wistar rats
- condition.set: male, Wistar, rat, plasma, oral, 100 mg/kg, t 1 h; IIIOLA (olaparib alone); group mean; read-out: Cave_ola
property: concentration at 1 h

{"molecule": "O=C(c1cc(Cc2n[nH]c(=O)c3ccccc23)ccc1F)N1CCN(C(=O)C2CC2)CC1 [olaparib, Olaparib]", "endpoint.result": "7110 ng/mL"}

----------
- measurement.protocol: Plasma pharmacokinetics of olaparib in rats after a single oral dose, alone or with metformin (UPLC-MS/MS, non-compartmental)
- Type: in vivo, Wistar rats
- condition.set: male, Wistar, rat, plasma, oral, 100 mg/kg, t 3 h; IIIOLA (olaparib alone); group mean; read-out: Cave_ola
- Source text: All applicable international, national, and/or institutional guidelines for the care and use of animals were followed. […] The maximum plasma concentration (Cmax) and the time to reach the Cmax (tmax) were obtained directly from the measured values. […]

{"given.smiles": "O=C(c1cc(Cc2n[nH]c(=O)c3ccccc23)ccc1F)N1CCN(C(=O)C2CC2)CC1", "concentration at 3 h, ng/mL": 4140}
